- Tested on: NCI-H460
- assay_method_text: NCI tumour cell line growth inhibition, 48 h
Active and inactive are the calls of the source. Cut-off read from the data, not from the text of the source: active = GI50 up to about 1.1 µM and inactive = higher.
quantity_kind: GI50

// lookup GI50 for `C/C(=C\Cc1cc(O)ccc1O)CCc1c(C)c(O)c(O)c(C=O)c1C`
23.8 µM (inactive)

// lookup GI50 for COC(=O)N/N=C(\C)C(CN1CCOCC1)C(c1ccccc1)c1cc2ccccc2oc1=O (stereo not drawn)
> 100 µM (inactive)

// lookup GI50 for CSCCC(NCc1c(O)ccc2ccc(=O)oc12)C(=O)O (stereo not drawn)
> 100 µM (inactive)

// lookup GI50 for CN1c2ccc(O)c(O)c2-c2cc(O)cc3c2C1CCC3 (stereo not drawn)
23.9 µM (inactive)

// lookup GI50 for `Cc1nnc2n1-c1ccccc1-c1[nH]c3ccccc3c1C2`
30.7 µM (inactive)

// lookup GI50 for `O=C(NNC(=S)Nc1ccccc1)c1nsc2ccccc12`
21.5 µM (inactive)

// lookup GI50 for `c1ccc2c(OCCSCCCCCCCCCCSCCOc3cccc4ccccc34)cccc2c1`
> 100 µM (inactive)

// lookup GI50 for O=C1NC(=O)C(C(CC(=O)c2ccc([N+](=O)[O-])cc2)c2ccccc2)C(=O)N1 (stereo not drawn)
> 100 µM (inactive)

// lookup GI50 for NC1C[C@H](n2cc(/C=C/Br)c(=O)[nH]c2=O)C[C@@H]1CO (stereo partly drawn)
> 100 µM (inactive)

// lookup GI50 for `CC1=NN(C(=O)CSc2nc3ccc(I)cc3c(=O)n2Cc2ccccc2)C(=O)C1`
31.8 µM (inactive)

// lookup GI50 for CC1(C)NC(C(=O)c2ccccc2)=[N+]([O-])C1(O)c1ccccc1 (stereo not drawn)
> 100 µM (inactive)

// lookup GI50 for OC(COc1cccc2ccccc12)CN1CCOCC1 (stereo not drawn)
> 100 µM (inactive)

// lookup GI50 for `COC(=O)C1=COc2c(n(C)c3ccccc23)-c2ccccc21`
> 100 µM (inactive)

// lookup GI50 for `CCN(CC)C(=O)c1cccc2c(OC)ccc(OC)c12`
> 100 µM (inactive)

// lookup GI50 for COc1cccc(C2c3cc4c(cc3OC(C)(N3CCCC3)C2C)OCO4)c1O (stereo not drawn)
5.5 µM (inactive)

// lookup GI50 for N=C(N)NCCCC(NCc1c2ccccc2nc2ccccc12)C(=O)O (stereo not drawn)
36.1 µM (inactive)

// lookup GI50 for `O=C1c2cccc(O)c2C(=O)c2c(O)cccc21`
30.3 µM (inactive)

// lookup GI50 for NC1CC(=O)c2c1sc(Cl)c2Cl (stereo not drawn)
> 100 µM (inactive)

// lookup GI50 for `CCOP(=O)(/C=C/n1cnc2c(=O)n(C(C)=O)c(N)nc21)OCC`
> 100 µM (inactive)

// lookup GI50 for CC12CCC3c4ccc(O)cc4CCC3C1C/C(=N\O)C2O (stereo not drawn)
> 100 µM (inactive)

// lookup GI50 for `COc1ccc2c(O)c3[n+](cc2c1OC)CCc1cc2c(cc1-3)OCO2`
79.4 µM (inactive)

// lookup GI50 for CC1=NNC(=O)C1C1C=C(c2c[nH]c3ccccc23)OC1=O (stereo not drawn)
> 100 µM (inactive)

// lookup GI50 for CC1=CC(O)(c2ccccc2)C(N2CCOCC2)N1O (stereo not drawn)
> 100 µM (inactive)
